# subject-of-test: Mitogen-activated protein kinase 11 (Homo sapiens) (UniProt Q15759)
# Sequence (Q15759 whole entry): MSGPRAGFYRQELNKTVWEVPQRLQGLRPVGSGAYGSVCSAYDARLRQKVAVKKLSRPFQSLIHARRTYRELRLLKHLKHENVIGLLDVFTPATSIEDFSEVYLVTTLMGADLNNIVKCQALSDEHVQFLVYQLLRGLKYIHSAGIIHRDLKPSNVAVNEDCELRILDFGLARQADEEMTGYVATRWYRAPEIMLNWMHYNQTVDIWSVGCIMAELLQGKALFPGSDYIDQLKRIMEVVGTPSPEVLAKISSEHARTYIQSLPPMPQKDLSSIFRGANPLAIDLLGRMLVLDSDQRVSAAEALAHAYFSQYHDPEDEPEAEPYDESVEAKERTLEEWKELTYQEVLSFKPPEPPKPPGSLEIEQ
# conditions-used: at 10 µM
measured-endpoint: residual activity (%)
Give just the numeric value; % need not be written.

Under Mitogen-activated protein kinase 11 (Homo sapiens) (UniProt Q15759), report residual activity for `COc1cc2ncnc(Nc3ccc(Oc4ccccc4)cc3)c2cc1OC`
90

Under Mitogen-activated protein kinase 11 (Homo sapiens) (UniProt Q15759), report residual activity for `COc1cc2ncnc(Nc3ccc(O)c(Br)c3)c2cc1OC`
58

Under Mitogen-activated protein kinase 11 (Homo sapiens) (UniProt Q15759), report residual activity for `Nc1nc(Nc2ccc(S(N)(=O)=O)cc2)nn1C(=S)Nc1c(F)cccc1F`
24

Under Mitogen-activated protein kinase 11 (Homo sapiens) (UniProt Q15759), report residual activity for `COc1ccc(OC)c2c(=S)c3ccccc3[nH]c12`
96

Under Mitogen-activated protein kinase 11 (Homo sapiens) (UniProt Q15759), report residual activity for `COc1cc2ncnc(N3CCN(C(=O)Nc4ccc(Oc5ccccc5)cc4)CC3)c2cc1OC`
91

Under Mitogen-activated protein kinase 11 (Homo sapiens) (UniProt Q15759), report residual activity for `CC(=O)O/N=C1\C(=C2\C(=O)Nc3cc(Br)ccc32)Nc2ccccc21`
100

---

# subject-of-test: cGMP-dependent protein kinase 1 (Homo sapiens)
# Sequence (whole entry): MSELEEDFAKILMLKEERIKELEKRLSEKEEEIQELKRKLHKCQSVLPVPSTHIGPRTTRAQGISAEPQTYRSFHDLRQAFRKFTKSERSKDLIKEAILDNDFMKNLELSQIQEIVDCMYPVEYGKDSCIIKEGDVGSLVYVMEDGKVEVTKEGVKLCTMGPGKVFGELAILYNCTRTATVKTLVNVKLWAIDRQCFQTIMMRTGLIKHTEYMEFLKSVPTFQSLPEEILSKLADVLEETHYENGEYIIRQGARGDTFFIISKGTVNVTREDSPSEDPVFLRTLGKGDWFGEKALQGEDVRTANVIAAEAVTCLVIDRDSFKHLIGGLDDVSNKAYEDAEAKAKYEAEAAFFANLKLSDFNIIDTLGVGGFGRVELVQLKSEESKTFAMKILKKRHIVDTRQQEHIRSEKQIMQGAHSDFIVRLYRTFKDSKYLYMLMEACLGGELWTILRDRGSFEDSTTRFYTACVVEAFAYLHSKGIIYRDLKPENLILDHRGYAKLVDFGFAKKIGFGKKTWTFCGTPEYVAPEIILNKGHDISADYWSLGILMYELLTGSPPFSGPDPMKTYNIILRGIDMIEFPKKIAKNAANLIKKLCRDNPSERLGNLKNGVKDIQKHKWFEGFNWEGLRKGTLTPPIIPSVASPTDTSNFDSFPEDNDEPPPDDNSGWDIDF
# conditions-used: at 10 µM
measured-endpoint: residual activity
Show the value, then the unit it is measured in.

Output residual activity of `Cn1cnc2cc3c(Nc4cccc(Br)c4)ncnc3cc21`
88%

Output residual activity of `O=[N+]([O-])c1ccc(-c2nc(-c3ccc(F)cc3)c(-c3ccncc3)[nH]2)cc1`
92%

Output residual activity of `COc1ccc(C(=O)Nc2sc3c(c2C(N)=O)CCCC3)cc1OC`
90%

Output residual activity of `O=C(Nc1cccc(Nc2nccc(Nc3cccc(C(F)(F)F)c3)n2)c1)C1CC1`
66%

Output residual activity of `N#C/C(=C(\N)Sc1ccc(N)cc1)c1ccccc1C(F)(F)F`
33%

Output residual activity of `O=C(Nc1cccc(Nc2cc(Nc3cccc(C(F)(F)F)c3)ncn2)c1)C1CC1`
88%

Output residual activity of `NC(=O)c1ccc2[nH]c(-c3ccc(Oc4ccc(Cl)cc4)cc3)nc2c1`
77%

Output residual activity of `CC[n+]1c(/C=C/N(C)c2ccccc2)n(-c2ccccc2)c2ccc(-c3nc4ccccc4s3)cc21`
60%

Output residual activity of `Oc1n[nH]c2nnc(-c3c(-c4ccccc4)nn4ccccc34)cc12`
78%

Output residual activity of `CC(C)n1cnc2c(NCc3ccccc3)nc(NCCCO)nc21`
83%

Output residual activity of `CO[C@@H]1[C@H](N(C)C(=O)c2ccccc2)C[C@H]2O[C@]1(C)n1c3ccccc3c3c4c(c5c6ccccc6n2c5c31)C(=O)NC4`
3%

Output residual activity of `Oc1ccc(Nc2nc(-c3ccc(Cl)cc3)cs2)cc1`
111%

Output residual activity of O=C1Nc2ccccc2/C1=C1/Nc2ccccc2/C1=N\OCCC(O)CO (configuration not stated)
9%

Output residual activity of `COc1cccc(-c2cc(=O)c3ccccc3o2)c1N`
102%

Output residual activity of `O=Nc1c(-c2c(O)[nH]c3ccccc23)[nH]c2ccccc12`
45%

Output residual activity of `CO[C@H]1C[C@@H]2CC[C@@H](C)[C@@](O)(O2)C(=O)C(=O)N2CCCC[C@H]2C(=O)O[C@H]([C@H](C)C[C@@H]2CC[C@@H](O)[C@H](OC)C2)CC(=O)[C@H](C)/C=C(\C)[C@@H](O)[C@@H](OC)C(=O)[C@H](C)C[C@H](C)/C=C/C=C/C=C/1C`
85%

Output residual activity of `COc1cc2ncnc(Nc3ccc(Oc4ccccc4)cc3)c2cc1OC`
110%
